Target: T1, cynomolgus monkey serum albumin (cynomolgus monkey, UniProt A2V9Z4 25-608)
T1 construct: Bought protein, immobilized on a CM5 chip by amine coupling; also called Cyno SA
Test: SPR (Biacore 8K), albumin immobilized on CM5 chip, 25 C, 1:1 kinetic fit
Collected koff values appear next to each entry.
Give just the numeric value; s⁻¹ need not be written.

Examples with answers:
binder	readout kind	scale unit	meas value
RLN Analog 3 (other, Single-chain fusion: VHH - (G4Q)5 L1 - RLN2 B chain (desB1) - L2 - RLN2 A chain) EVQLLESGGGLVQPGGSLRLSCAASGRYIDETAVAWFRQAPGKEREFVAGIGGGVDITYYADSVKGRFTISRDNSKNTLYLQMNSLRPEDTAVYYCAARPGRPLITSKVADLYPYWGQGTLVTVSSGGGGQGGGGQGGGGQGGGGQGGGGQSWMEEVIKLCGRELVRAQIAICGMSTWSGGGSGGSGGGQLYSALANKCCHVGCTKRSLARFC	koff	s⁻¹	0.00054
RLN Analog 11 (other, Single-chain fusion: VHH - (G4Q)5 L1 - RLN2 B chain (desB1) - L2 of thirteen residues - RLN2 A chain (desA1-4)) EVQLLESGGGLVQPGGSLRLSCAASGRYIDETAVAWFRQAPGKEREFVAGIGGGVDITYYADSVKGRFTISRDNSKNTLYLQMNSLRPEDTAVYYCAARPGRPLITSKVADLYPYWGQGTLVTVSSGGGGQGGGGQGGGGQGGGGQGGGGQSWMEEVIKLCGRELVRAQIAICGMSTWSGGGSGGSGGSGGGALANKCCHVGCTKRSLARFC	koff	s⁻¹	0.00064

API: the following record is the query input.
INPUT: Which koff value is on record for RLN Analog 7 (other, Single-chain fusion: VHH - (G4Q)5 L1 - RLN2 B chain (desB1) - L2 - RLN2 A chain) EVQLLESGGGLVQPGGSLRLSCAASGRYIDETAVAWFRQAPGKGREFVAGIGGGVDITYYADSVKGRFTISRDNSKNTLYLQMNSLRPEDTAVYYCAARPGRPLITSKVADLYPYWGQGTLVTVSSGGGGQGGGGQGGGGQGGGGQGGGGQSWMEEVIKLCGRELVRAQIAICGMSTWSGGGSGGSGGGQLYSALANKCCHVGCTKRSLARFC ?
OUTPUT: 0.00059
